- System: HL-60
- test_method_notes: NCI tumour cell line growth inhibition, 48 h
Active and inactive are the calls of the source. Cut-off read from the data, not from the text of the source: active = GI50 up to about 1.1 µM and inactive = higher.
endpoint: GI50

# annotated cases, reported GI50 shown
molecule	system_under_test	result
COC(=O)CCc1ccc2c(c1)CC1(Cc3ccccc3C1)C2	HL-60	51.9 µM (inactive)
O=C1CC(c2cccc(Cl)c2)Oc2ccccc21 (stereo unspecified)	HL-60	11.1 µM (inactive)

Notebook: `CCCCc1ccc(Nc2nc(Cl)c3ncn(COCCOC(C)=O)c3n2)cc1` , GI50 read as 20.9 µM (inactive)

Notebook: CCCCCCCCCCCCCCCCCC(=O)NCC(COP(=O)(O)O)OCC (stereo unspecified) , GI50 read as > 100 µM (inactive)

Notebook: `CN1S(=O)(=O)N(C)P12(N=P(CP(=NP13(N(C)S(=O)(=O)N1C)N(C)S(=O)(=O)N3C)(c1ccccc1)c1ccccc1)(c1ccccc1)c1ccccc1)N(C)S(=O)(=O)N2C` , GI50 read as > 100 µM (inactive)

Notebook: CC(NC1=CC(=O)c2ncccc2C1=O)C(O)c1ccccc1 (stereo unspecified) , GI50 read as 3.44 µM (inactive)

Notebook: `CCOC(=O)c1nnsc1NN=C(C)C` , GI50 read as > 100 µM (inactive)

Notebook: `S=c1c2cc(I)ccc2nc(S)n1Cc1ccccc1` , GI50 read as 2.33 µM (inactive)

Notebook: CC1OC(n2cc(F)c(=O)[nH]c2=O)C=CC1=O (stereo unspecified) , GI50 read as 17.9 µM (inactive)

Notebook: COC1(C)OC[C@@]2(C)OC(C)C1(C)C2O[Si](C(C)C)(C(C)C)C(C)C (stereo partly specified) , GI50 read as 17.5 µM (inactive)

Notebook: c1ccc2c(c1)CCN1CCc3c([nH]c4ccccc34)C21 (stereo unspecified) , GI50 read as 13.7 µM (inactive)

Notebook: `Clc1cc(OC23CC4CC(CC(C4)C2)C3)nc(Cl)n1` , GI50 read as 10 µM (inactive)

Notebook: `CCOC(=O)c1sc2nc(SC)nc3c2c1N=CN3c1ccc(Br)cc1` , GI50 read as > 100 µM (inactive)

Notebook: `c1coc(CNc2[nH]cnc3nncc2-3)c1` , GI50 read as 87.9 µM (inactive)

Notebook: `O=c1cc(-c2ccccc2)oc2c(-c3cc(Cl)cc4c(=O)cc(-c5ccccc5)oc34)cc(Cl)cc12` , GI50 read as 50.1 µM (inactive)

Notebook: COc1ccc(N2C(=O)/C(=C\c3cc(OC)c(OC)c(OC)c3)SC2c2ccccc2)cc1 (stereo unspecified) , GI50 read as 10.4 µM (inactive)

Notebook: CC(=O)Nc1ccc(N2C(=O)CS(=O)(=O)C2c2cccc(Oc3ccccc3)c2)cc1 (stereo unspecified) , GI50 read as 23.5 µM (inactive)

====

- Tested on: DMS-273
- test_method_notes: NCI tumour cell line growth inhibition, 48 h
The source made the active and inactive calls. Rule as the data show it: active = GI50 up to about 1.1 µM and inactive = higher.
Please reply with one of these outcomes: active, inactive

Use these answered entries as a reference point.
                                   compound  class_label
0  COc1ccc(N2C(=O)C3c4[nH]c5ccccc5c4C4CCC(C(C)(C)C)CC4C3C2=O)cc1OC (configuration not stated)     inactive
1  CCOc1ccc(NC(=O)CC2Sc3ccccc3NC2=O)cc1 (configuration not stated)     inactive
2  N#CC(NNC(=O)Cc1ccccc1)c1c(O)ccc2ccccc12 (configuration not stated)     inactive
3           Nc1nc(N)c(CCCCc2ccccc2)c(C=O)n1     inactive
4  COc1ccc(N2C(=O)C3c4[nH]c5ccccc5c4C4CCCCCCCCCCC4C3C2=O)cc1 (configuration not stated)     inactive
5  Cc1ccc2[nH]c3c(C)c4c(c(C)c3c2c1)CN(C)C=C4       active
6  c1ccc2[nH]c(CNc3ccc(C4C[Se]N=N4)cc3)nc2c1 (configuration not stated)     inactive
7        Cc1c2ccccc2c(CO)c2cc(F)c3ccccc3c12     inactive

Kindly provide the recorded test outcome for the following compound: C=CC[P@@]1(=O)O[C@H](c2ccccc2)C(C)N1C(C)C (some centres not stated) inactive

Kindly provide the recorded test outcome for the following compound: `COc1cc(OC)cc(N2CCC(c3c(N)nc(N)nc3Cl)CC2)c1` inactive

Kindly provide the recorded test outcome for the following compound: COC1CC(CC2CCC(C)C(C(C)C(=O)O)O2)OC2(OC(C)(C3CCC(C)(C4OC(C5OC(O)(CO)C(C)CC5C)CC4C)O3)CC2C)C1C (configuration not stated) active

Kindly provide the recorded test outcome for the following compound: CCC1=CCN(c2cc(C)ccn2)OC1c1ccccc1 (configuration not stated) inactive

Kindly provide the recorded test outcome for the following compound: `Cc1ccc(C(=O)O/N=C2/CCC/C2=C\c2ccccc2)cc1` inactive

Kindly provide the recorded test outcome for the following compound: CC1OC(n2cc(F)c(=O)[nH]c2=O)C=CC1=O (configuration not stated) inactive

Kindly provide the recorded test outcome for the following compound: `CO/N=C/c1cc(OC)c(OC)c(OC)c1` inactive

Kindly provide the recorded test outcome for the following compound: `O=C1N=C2N=C(c3ccc(Cl)cc3)N(c3ccc(Cl)cc3)N2Sc2ccccc21` inactive

Kindly provide the recorded test outcome for the following compound: `COc1cc(/C=C\c2ccccc2)cc(OC)c1OC` inactive
